# Assay summary: recombinant UMI read abundance after kanamycin selection (control-corrected) (log10(CPM+1)); higher = more efficient recombination; extreme values may be limits of the assay; sequences stand for … in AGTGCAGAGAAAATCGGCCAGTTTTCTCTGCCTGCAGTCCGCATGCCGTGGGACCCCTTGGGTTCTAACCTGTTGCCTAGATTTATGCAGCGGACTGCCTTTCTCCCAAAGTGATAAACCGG…AGGTTGGTTTCACT; site = the 11-nt donor;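 note: IS621 bridge recombinase in Escherichia coli cells against a fixed T5 target plasmid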
recombinant UMI read abundance (log10) of 0.02 or higher: class 1. Under 0.02: class 0.

> print(dat)
                              sequence.data  discrete.label
1  GGGCATGCATGGACCGGTTTTCCCGGTAATCCGTATTTGGT (site GCGCATGCTAC)         class 0
2  TGTTAGACATGGACCGGTTTTCCCGGTAATCCGTATTTGAG (site CGTTAGACTCT)         class 1
3  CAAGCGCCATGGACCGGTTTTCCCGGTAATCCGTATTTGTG (site CAAGTGCCTCA)         class 0
4  CAGTCGCCATGGACCGGTTTTCCCGGTAATCCGTATTTGGG (site CAGTCGCCTCC)         class 0
5  CTTCACTCATGGACCGGTTTTCCCGGTAATCCGTATTTGTA (site CTTCCCTCTTA)         class 0
